- System: Escherichia coli TOP10
- experiment_description: shrunken log2 fold change of peptide-encoding DNA abundance (4.5 h post-induction vs induction); higher = less antimicrobial activity (less host growth inhibition)
- protocol_conditions: time post-induction: 4.5 h; library: site-saturation at positions 5, 18, 19, 20
Response key: t means shrunken log2 fold change >= -0.03; f means shrunken log2 fold change < -0.03.

{"columns": ["residue_string", "category"],
 "data": [
  ["RRIRYRPPRLPRPRPRPHTCPRP", "f"],
  ["RRIRVRPPRLPRPRPRPGHWPRP", "t"],
  ["RRIRVRPPRLPRPRPRPYWRPRP", "f"],
  ["RRIRDRPPRLPRPRPRPYEYPRP", "f"],
  ["RRIRLRPPRLPRPRPRPEWVPRP", "t"],
  ["RRIRTRPPRLPRPRPRPWGGPRP", "t"]
]}

[in] Say whether RRIRRRPPRLPRPRPRPYVEPRP shows shrunken log2 fold change of -0.03 or more.
[out] f

[in] Say whether RRIRGRPPRLPRPRPRPNGVPRP shows shrunken log2 fold change of -0.03 or more.
[out] f

[in] Say whether RRIRLRPPRLPRPRPRPGMCPRP shows shrunken log2 fold change of -0.03 or more.
[out] f

[in] Say whether RRIRARPPRLPRPRPRPLHRPRP shows shrunken log2 fold change of -0.03 or more.
[out] t

[in] Say whether RRIRQRPPRLPRPRPRPSDEPRP shows shrunken log2 fold change of -0.03 or more.
[out] f

[in] Say whether RRIRMRPPRLPRPRPRPNLFPRP shows shrunken log2 fold change of -0.03 or more.
[out] t

[in] Say whether RRIRCRPPRLPRPRPRPAKQPRP shows shrunken log2 fold change of -0.03 or more.
[out] t

###

Property: shrunken log2 fold change; scope: individual sequences
- Tested on: Escherichia coli TOP10
- experiment_description: shrunken log2 fold change of peptide-encoding DNA abundance (4.5 h post-induction vs induction); higher = less antimicrobial activity (less host growth inhibition)
- protocol_conditions: time post-induction: 4.5 h; library: site-saturation at positions 5, 18, 19, 20
Enter a number only.

{"columns": ["residue_string", "shrunken log2 fold change"],
 "data": [
  ["RRIRRRPPRLPRPRPRPFNFPRP", -0.473]
]}

Briefly, shrunken log2 fold change measured for RRIRFRPPRLPRPRPRPATEPRP : 0.0616

Briefly, shrunken log2 fold change measured for RRIRDRPPRLPRPRPRPQQQPRP : -0.114

Briefly, shrunken log2 fold change measured for RRIRSRPPRLPRPRPRPKMGPRP : -0.108

Briefly, shrunken log2 fold change measured for RRIRIRPPRLPRPRPRPAEEPRP : -0.084

Briefly, shrunken log2 fold change measured for RRIRERPPRLPRPRPRPQTLPRP : -0.324

Briefly, shrunken log2 fold change measured for RRIRIRPPRLPRPRPRPIVRPRP : -0.339

Briefly, shrunken log2 fold change measured for RRIRMRPPRLPRPRPRPTTTPRP : 0.276

Briefly, shrunken log2 fold change measured for RRIRMRPPRLPRPRPRPGLWPRP : 1.1

Briefly, shrunken log2 fold change measured for RRIRWRPPRLPRPRPRPKYLPRP : -0.1

###

- System: Escherichia coli TOP10
- experiment_description: shrunken log2 fold change of peptide-encoding DNA abundance (4.5 h post-induction vs induction); higher = less antimicrobial activity (less host growth inhibition)
- protocol_conditions: time post-induction: 4.5 h; library: site-saturation at positions 5, 18, 19, 20
Response key: Yes means shrunken log2 fold change >= 0.09; No means shrunken log2 fold change < 0.09.

Worked cases, answers included:
{"columns": ["residue_string", "measurement_target", "category"],
 "data": [
  ["RRIRMRPPRLPRPRPRPLVWPRP", "Escherichia coli TOP10", "Yes"],
  ["RRIRKRPPRLPRPRPRPEYTPRP", "Escherichia coli TOP10", "No"]
]}

[in] Say whether RRIRFRPPRLPRPRPRPADIPRP shows shrunken log2 fold change of 0.09 or more.
[out] Yes

[in] Say whether RRIRCRPPRLPRPRPRPDVWPRP shows shrunken log2 fold change of 0.09 or more.
[out] Yes

[in] Say whether RRIRYRPPRLPRPRPRPGARPRP shows shrunken log2 fold change of 0.09 or more.
[out] No

[in] Say whether RRIRIRPPRLPRPRPRPTRPPRP shows shrunken log2 fold change of 0.09 or more.
[out] Yes

[in] Say whether RRIRERPPRLPRPRPRPIENPRP shows shrunken log2 fold change of 0.09 or more.
[out] No

###

- Tested on: Escherichia coli TOP10
- experiment_description: shrunken log2 fold change of peptide-encoding DNA abundance (4.5 h post-induction vs induction); higher = less antimicrobial activity (less host growth inhibition)
- protocol_conditions: time post-induction: 4.5 h; library: site-saturation at positions 5, 18, 19, 20
Property: shrunken log2 fold change; scope: individual sequences
Enter a number only.

Some entries whose results are on file:
{"columns": ["residue_string", "measurement_target", "readout_number"],
 "data": [
  ["RRIRIRPPRLPRPRPRPGESPRP", "Escherichia coli TOP10", -0.0125],
  ["RRIRMRPPRLPRPRPRPQRRPRP", "Escherichia coli TOP10", 0.799],
  ["RRIRGRPPRLPRPRPRPWPVPRP", "Escherichia coli TOP10", 0.674]
]}

Briefly, shrunken log2 fold change measured for RRIRDRPPRLPRPRPRPMWHPRP : -0.008

Briefly, shrunken log2 fold change measured for RRIRERPPRLPRPRPRPKAMPRP : 0.282

Briefly, shrunken log2 fold change measured for RRIRFRPPRLPRPRPRPCIEPRP : -0.422

Briefly, shrunken log2 fold change measured for RRIRQRPPRLPRPRPRPEWDPRP : 0.0586

Briefly, shrunken log2 fold change measured for RRIRVRPPRLPRPRPRPYDKPRP : -1.05

Briefly, shrunken log2 fold change measured for RRIRVRPPRLPRPRPRPEKTPRP : 0.0303

Briefly, shrunken log2 fold change measured for RRIRGRPPRLPRPRPRPQTWPRP : 0.0175

Briefly, shrunken log2 fold change measured for RRIRNRPPRLPRPRPRPSIVPRP : -0.335

###

- Tested on: Escherichia coli TOP10
- experiment_description: shrunken log2 fold change of peptide-encoding DNA abundance (4.5 h post-induction vs induction); higher = less antimicrobial activity (less host growth inhibition)
- protocol_conditions: time post-induction: 4.5 h; library: site-saturation at positions 5, 18, 19, 20
measured_property: shrunken log2 fold change
Enter a number only.

Some entries whose results are on file:
{"columns": ["residue_string", "shrunken log2 fold change"],
 "data": [
  ["RRIRFRPPRLPRPRPRPDSSPRP", -0.055],
  ["RRIRKRPPRLPRPRPRPQHRPRP", 0.148],
  ["RRIRGRPPRLPRPRPRPELKPRP", 0.336],
  ["RRIRSRPPRLPRPRPRPAGTPRP", 1.67],
  ["RRIRKRPPRLPRPRPRPQGIPRP", 0.114],
  ["RRIRCRPPRLPRPRPRPSVHPRP", -0.575],
  ["RRIRRRPPRLPRPRPRPLYHPRP", -0.353],
  ["RRIRMRPPRLPRPRPRPELYPRP", 0.0658]
]}

Param item: RRIRQRPPRLPRPRPRPNHGPRP ; param system: Escherichia coli TOP10; output shrunken log2 fold change: -0.00507

Param item: RRIRWRPPRLPRPRPRPKRGPRP ; param system: Escherichia coli TOP10; output shrunken log2 fold change: 0.239

Param item: RRIRVRPPRLPRPRPRPLNAPRP ; param system: Escherichia coli TOP10; output shrunken log2 fold change: -0.331

###

- Test system: Escherichia coli TOP10;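 note: peptides expressed intracellularly from a pBAD plasmid library in pooled LB shake-flask culture, induced with 0.3% L-arabinose, DNA abundance read by NGS, three biological replicates, DESeq2 with apeglm shrinkage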
- experiment_description: shrunken log2 fold change of peptide-encoding DNA abundance (4.5 h post-induction vs induction); higher = less antimicrobial activity (less host growth inhibition)
- protocol_conditions: time post-induction: 4.5 h; library: site-saturation at positions 5, 18, 19, 20
Property: shrunken log2 fold change; scope: individual sequences
Enter a number only.

Some entries whose results are on file:
{"columns": ["residue_string", "measurement_target", "shrunken log2 fold change"],
 "data": [
  ["RRIRERPPRLPRPRPRPFCPPRP", "Escherichia coli TOP10", -0.149],
  ["RRIRDRPPRLPRPRPRPSRCPRP", "Escherichia coli TOP10", 0.346],
  ["RRIRTRPPRLPRPRPRPNTSPRP", "Escherichia coli TOP10", -0.43],
  ["RRIRRRPPRLPRPRPRPRSAPRP", "Escherichia coli TOP10", 0.532],
  ["RRIRNRPPRLPRPRPRPHAYPRP", "Escherichia coli TOP10", 0.00658],
  ["RRIRWRPPRLPRPRPRPCYYPRP", "Escherichia coli TOP10", -0.0954]
]}

Now consider a different sequence.
Briefly, shrunken log2 fold change measured for RRIRYRPPRLPRPRPRPQWHPRP : -0.638
